measurementTarget: Metabotropic glutamate receptor 8 (Rattus norvegicus) (UniProt P70579)
Sequence (P70579 whole entry, looked up): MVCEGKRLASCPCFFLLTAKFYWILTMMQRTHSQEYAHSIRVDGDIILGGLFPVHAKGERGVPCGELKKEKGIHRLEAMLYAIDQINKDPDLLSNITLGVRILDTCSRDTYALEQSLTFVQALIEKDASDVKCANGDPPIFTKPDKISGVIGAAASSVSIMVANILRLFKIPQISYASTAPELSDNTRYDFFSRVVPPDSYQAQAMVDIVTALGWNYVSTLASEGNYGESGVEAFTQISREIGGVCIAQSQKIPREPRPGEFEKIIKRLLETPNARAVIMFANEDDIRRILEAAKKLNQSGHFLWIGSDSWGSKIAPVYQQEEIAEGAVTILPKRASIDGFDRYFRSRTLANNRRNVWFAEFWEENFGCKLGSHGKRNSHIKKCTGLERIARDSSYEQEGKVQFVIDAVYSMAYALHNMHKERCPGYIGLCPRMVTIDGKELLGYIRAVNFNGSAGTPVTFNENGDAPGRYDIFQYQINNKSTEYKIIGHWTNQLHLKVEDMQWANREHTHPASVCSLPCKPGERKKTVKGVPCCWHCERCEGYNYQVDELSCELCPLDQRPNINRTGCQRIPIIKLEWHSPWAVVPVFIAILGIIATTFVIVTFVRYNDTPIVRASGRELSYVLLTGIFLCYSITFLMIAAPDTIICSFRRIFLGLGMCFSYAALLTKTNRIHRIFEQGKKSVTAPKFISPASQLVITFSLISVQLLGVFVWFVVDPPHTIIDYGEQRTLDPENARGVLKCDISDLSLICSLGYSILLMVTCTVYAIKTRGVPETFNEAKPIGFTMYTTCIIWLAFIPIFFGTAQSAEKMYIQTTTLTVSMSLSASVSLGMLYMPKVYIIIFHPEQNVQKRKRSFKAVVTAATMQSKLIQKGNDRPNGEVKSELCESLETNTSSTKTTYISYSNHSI
methodDescription: mGluR8 Gi/Go-coupled signaling modulation – cell-based, rat, thallium flux, HTS, primary screen (AID 488969)
testContext: HEK293 rat mGluR8, GIRK thallium flux, FluoZin2; at 10 µM; stronger effect = higher value; submaximal glutamate (EC20) added with thallium
In all, about 110,000 compounds were measured (“z-score”: median about -0.1, highest 2% from about 2 on). The list comes from a sample in which the highest values are over-represented; it also holds close analogues and randomly drawn compounds.
Measured z-score accompanies every entry in the list below.
Write no unit; give the number alone.

Output z-score of CC(OC(=O)c1cc2sccc2n1C)C(=O)NCc1ccc2c(c1)OCO2 (centres undefined)
-0.018

Output z-score of CC1CC1C(=O)OCC(=O)Nc1ccc(N=Nc2ccccc2)cc1 (centres undefined)
0.616

Output z-score of CC1=C(CC/C(C)=N/NC(N)=S)C(C)(C)CCC1
1.85

====

measurementTarget: Metabotropic glutamate receptor 8 (Rattus norvegicus)
methodDescription: mGluR8 Gi/Go-coupled signaling modulation – cell-based, rat, thallium flux, HTS, primary screen (AID 488969)
testContext: HEK293 rat mGluR8, GIRK thallium flux, FluoZin2; at 10 µM; stronger effect = higher value; submaximal glutamate (EC20) added with thallium
In all, about 110,000 compounds were measured (“z-score”: median about -0.1, highest 2% from about 2 on). This excerpt belongs to a sample that is enriched for the highest values.
So basically every entry gets a class from its z-score, ranges being bucket 1 = under -0.2, bucket 2 = from -0.2 up to 0.4, bucket 3 = 0.4 and over

Here's what some known entries look like.
COC(=O)C1=NN(C(=O)c2ccc(C)cc2)C(O)(c2ccc(Cl)cc2)C1 (stereo unspecified)	bucket 3
Cc1ccc(Nc2nc3ccccc3s2)cc1	bucket 2
O=C(c1ccc2snnc2c1)N1CCN(c2ccccn2)CC1	bucket 1
O=C(NC(=S)Nc1ccc(N2CCCCC2)c(Cl)c1)c1cccs1	bucket 3
CC1CCN(c2ccc(C(=O)Nc3ccc4c(c3)OCO4)cc2[N+](=O)[O-])CC1	bucket 1
CCCCNC(=O)C1CCCNC1=O (stereo unspecified)	bucket 2
COc1ccc(C2C(C(=O)c3ccco3)=C(O)C(=O)N2CCOCCO)cc1OC (stereo unspecified)	bucket 2
CCN(CC)c1ccc(NC(=O)c2cccnc2)cc1	bucket 1

Read the next record carefully.
Consider COC(=O)C1(O)CC(C(C)C)=NN1C(=O)c1ccc(Cl)cc1 (stereo unspecified) . To which z-score class does it belong?
bucket 3

====

measurementTarget: Metabotropic glutamate receptor 8 (Rattus norvegicus)
methodDescription: mGluR8 Gi/Go-coupled signaling modulation – cell-based, rat, thallium flux, HTS, primary screen (AID 488969)
testContext: HEK293 rat mGluR8, GIRK thallium flux, FluoZin2; at 10 µM; stronger effect = higher value; submaximal glutamate (EC20) added with thallium
The full ranking holds about 110,000 compounds; the median of “z-score” is about -0.1, and the highest 2% start at about 2. This is one part of a sample in which the highest values are shown more often than they occur.
Measured z-score accompanies every entry in the list below.
Write no unit; give the number alone.

Cc1cc(N2C(=O)C3C4c5ccccc5C(c5ccccc54)C3C2=O)no1 (stereo not given)	-0.47
CC1(C)CC(=O)C(N=Nc2ccc(Cl)cc2)=C(O)C1	-0.154
COc1ccc(Cl)cc1C(=O)CSc1nnnn1C1CCCC1	7.32
CC(=O)Nc1ccc(N2CCCCC2)c(C(=O)Nc2cccc(C)c2)c1	-0.0504
C=CCn1c(SCN2C(=O)c3ccccc3C2=O)nc2ccc(Cl)cc2c1=O	12.6
CCOC(=O)N1CCN(c2c(F)cc3[nH]c(=S)[nH]c3c2Br)CC1	6.26
O=C(Nc1ccc(Cl)cc1)C1CCCN(S(=O)(=O)c2cnc[nH]2)C1 (stereo not given)	0.605
CCCC(=O)NC(Nc1cccc(C(F)(F)F)c1)C(Cl)(Cl)Cl (stereo not given)	-0.917

State the measured z-score (Metabotropic glutamate receptor 8 (Rattus norvegicus)) of Cc1cccc(-n2c(O)c(C=Nc3c(C)n(C)n(-c4ccccc4)c3=O)c3ccccc3c2=O)n1
-0.137

State the measured z-score (Metabotropic glutamate receptor 8 (Rattus norvegicus)) of Clc1ccccc1CN1CCC(Cc2ccccc2)CC1
-0.0513

State the measured z-score (Metabotropic glutamate receptor 8 (Rattus norvegicus)) of CS(=O)(=O)N(CC(=O)O)c1ccc2c(c1)OCO2
-2.86

State the measured z-score (Metabotropic glutamate receptor 8 (Rattus norvegicus)) of CCOC(=O)N1CCN(c2cc3[nH]c(=S)[nH]c3cc2F)CC1
-0.482

====

measurementTarget: Metabotropic glutamate receptor 8 (Rattus norvegicus) (UniProt P70579)
methodDescription: mGluR8 Gi/Go-coupled signaling modulation – cell-based, rat, thallium flux, HTS, primary screen (AID 488969)
testContext: HEK293 rat mGluR8, GIRK thallium flux, FluoZin2; at 10 µM; stronger effect = higher value; submaximal glutamate (EC20) added with thallium
Over roughly 110,000 compounds, “z-score” has its median near -0.1; the highest 2% begin near 2. Shown is part of a subset that was picked to be rich in the highest values.
Would you mind labelling by z-score? At or over 0.08 is met, under is not met.

Here's what some known entries look like.
O=C1CC(N2CCC(O)(c3ccc(Cl)cc3)CC2)C(=O)N1 (configuration not stated)	met
CC1Cc2ccccc2N1C(=O)Cc1cccs1 (configuration not stated)	not met
COc1cc(OC)cc(C(=O)NCc2n[nH]c(=S)n2-c2ccccc2OC)c1	not met
CC1CCCN(C(=O)CSc2nnc3n(C4CCCC4)c(=O)c4ccccc4n23)C1 (configuration not stated)	not met

Exam item: decide whether the reported z-score for CCOc1ccc(NCc2cc3c(C(C)(C)C)nn(-c4ccccc4)c3[nH]c2=O)cc1 is at least 0.08.
not met

Exam item: decide whether the reported z-score for O=C(NS(=O)(=O)c1ccccc1)c1ccccc1O is at least 0.08.
met

Exam item: decide whether the reported z-score for CCc1ccc(NCc2cc3c(C)nn(-c4ccccc4)c3[nH]c2=O)cc1 is at least 0.08.
met

Exam item: decide whether the reported z-score for Cc1nc2ccccn2c1C(=O)NN is at least 0.08.
met

Exam item: decide whether the reported z-score for O=C(NCc1ccco1)c1cc(-c2cccc(Cl)c2)on1 is at least 0.08.
not met

Exam item: decide whether the reported z-score for Cc1c(C(=O)NN)nc2ccccn12 is at least 0.08.
not met

Exam item: decide whether the reported z-score for CCN(CC)CCCNC(=O)c1cc(-c2ccc(Cl)c(Cl)c2)on1 is at least 0.08.
met

Exam item: decide whether the reported z-score for COc1ccc(CNC(=O)c2c(C)nc3ccccn23)cc1 is at least 0.08.
not met

====

measurementTarget: Metabotropic glutamate receptor 8 (Rattus norvegicus) (UniProt P70579)
methodDescription: mGluR8 Gi/Go-coupled signaling modulation – cell-based, rat, thallium flux, HTS, primary screen (AID 488969)
testContext: HEK293 rat mGluR8, GIRK thallium flux, FluoZin2; at 10 µM; stronger effect = higher value; submaximal glutamate (EC20) added with thallium
Over roughly 110,000 compounds, “z-score” has its median near -0.1; the highest 2% begin near 2. The sample holds the highest values, similar compounds and a random draw of the others, so the mix is not that of the screen.
So basically every entry gets a class from its z-score, ranges being Low: < -0.1; Medium: ≥ -0.1 and < 0.2; High: ≥ 0.2

Here's what some known entries look like.
O=C1Nc2ccccc2/C1=C\c1cccn1-c1ccc(OC(F)(F)F)cc1	High
C=CCOc1cccc(C2/C(=C(/O)c3ccc(Cl)cc3)C(=O)C(=O)N2CCN2CCOCC2)c1 (centres undefined)	Low
C=CCOc1cccc(C2/C(=C(/O)c3ccc(C)cc3)C(=O)C(=O)N2CCN2CCOCC2)c1 (centres undefined)	High
CCC(=O)Nc1nc(-c2ccc3c(c2)OCCO3)cs1	Medium
Cc1ccc(C)c(OCC(=O)Nc2nc3ccc([N+](=O)[O-])cc3s2)c1C	High

Consider Cc1cccc(OCC(=O)Nc2nc3ccc([N+](=O)[O-])cc3s2)c1C . To which z-score class does it belong?
Low

Consider COc1cc(C=O)ccc1OS(=O)(=O)c1ccccc1[N+](=O)[O-] . To which z-score class does it belong?
Low

Consider O=C(O)c1cc(S(=O)(=O)Nc2ccccc2C(=O)O)ccc1O . To which z-score class does it belong?
Low

Consider CC(OC(=O)CCCN1C(=O)c2ccccc2C1=O)C(=O)Nc1ncc(Cl)cc1Cl (centres undefined) . To which z-score class does it belong?
High

Consider O=C(CSc1nc(-c2ccc(F)cc2)cs1)N1CCOCC1 . To which z-score class does it belong?
High

Consider CCCNC(=O)COC(=O)c1cc(SC)ccc1Cl . To which z-score class does it belong?
High

Consider COc1ccc(C(CC(=O)O)NC(=O)c2ccccc2)cc1OC (centres undefined) . To which z-score class does it belong?
Low

====

measurementTarget: Metabotropic glutamate receptor 8 (Rattus norvegicus)
methodDescription: mGluR8 Gi/Go-coupled signaling modulation – cell-based, rat, thallium flux, HTS, primary screen (AID 488969)
testContext: HEK293 rat mGluR8, GIRK (G protein-gated inwardly rectifying potassium channel) thallium flux, FluoZin2; at 10 µM; stronger effect = higher value; submaximal glutamate (EC20) added with thallium
The full ranking holds about 110,000 compounds; the median of “z-score” is about -0.1, and the highest 2% start at about 2. This is one part of a sample in which the highest values are shown more often than they occur.
Would you mind labelling by z-score? At or over -0.2 is T, under is F.

Here's what some known entries look like.
O=C(O)COc1ccc(/C=N/n2c(COc3ccccc3)nc3ccccc3c2=O)cc1	T
CC(=O)Nc1ccc(S(=O)(=O)NNC(=O)CCC(=O)Nc2cc(C)ccc2C)cc1	F
CCc1ccc(/C=N/NC(=O)C(=O)NCCCN2CCOCC2)cc1	T

Exam item: decide whether the reported z-score for CN(C)S(=O)(=O)c1cc(C(=O)O)c(NC2CCCCC2)cc1Cl is at least -0.2.
F

Exam item: decide whether the reported z-score for CCOC(=O)c1ccc(COC(=O)c2nonc2N)cc1 is at least -0.2.
T

Exam item: decide whether the reported z-score for Cc1nonc1OCC(C)(COc1nonc1C)NC(=O)c1ccccc1 is at least -0.2.
T
